B1: NELF-E aptamer (parent)
chain: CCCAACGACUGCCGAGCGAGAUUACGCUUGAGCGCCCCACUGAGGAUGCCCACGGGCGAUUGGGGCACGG

# Variants of: B1
# Assay Info: HiTS-RAP
# Experimental Parameters: with NELF-E (Drosophila)
Measured Attribute: pKd
Remember the convention: pKd equals -log10 of concentration in molar.

# annotated cases, reported pKd shown
>  <Sequence>
CCCUACGACUGCCGAGCGAGAUUACGCUAGAGCGCCCCACUGAGGAUGCCCACGGGCGAUUGGGGCACGG [A4U U29A]

>  <pKd>
8.37

$$$$
>  <Sequence>
CCCAGCGACUGCCGAGCGAGAUUACGCUUGAGCGCCCCACUGAGGGUGCCCACGGGCGAUUGGGGCACGG [A5G A46G]

>  <pKd>
7.82

$$$$
>  <Sequence>
CCCAACGACUGCCGAGCGAGAGUACGCUUGAGCGCCCCGCUGAGGAUGCCCACGGGCGAUUGGGGCACGG [U22G A39G]

>  <pKd>
8.08

$$$$
>  <Sequence>
CCCAACGACUGCCGAGCGGGAUUACGCUUGAGCGCCCCACUGAGGGUGCCCACGGGCGAUUGGGGCACGG [A19G A46G]

>  <pKd>
7.69

$$$$
>  <Sequence>
CCCAACGACUGCCGAGCGAGAUUACGCUUGAGCGCCCCUCUGAGGAUGCCCACGGGCGAUAGGGGCACGG [A39U U61A]

>  <pKd>
7.76

$$$$

Output pKd of CCCAAGGACUGCCGAGCGAGAUUACGCUUGAGCGCCCUACUGAGGAUGCCCACGGGCGAUUGGGGCACGG [C6G C38U]
7.98

Read the entry CCCAACGAGUGCGGAGCGAGAUUACGCUUGAGCGCCCCACUGAGGAUGCCCACGGGCGAUUGGGGCACGG [C9G C13G] and write its reported pKd.
8.26

Report pKd, nothing else, for this variant: CCCAACGACUGCCGAGCGAUAUUACGCUUGAGCGCCCCACGGAGGAUGCCCACGGGCGAUUGGGGCACGG [G20U U41G]
8.20

Output pKd of CCCGACGACUGCCGAGCGAGAUUACGCUUGAGCGCCCCACUGAGGAUGCCCACGGUCGAUUGGGGCACGG [A4G G56U]
8.22

Return pKd for the following variant: CCCAACAACUGCCGAGCGAGAUUACGCUGGAGCGCCCCACUGAGGAUGCCCACGGGCGAUUGGGGCACGG [G7A U29G]
8.19

Output pKd of CCCAACGGCUGCCGAACGAGAUUACGCUUGAGCGCCCCACUGAGGAUGCCCACGGGCGAUUGGGGCACGG [A8G G16A]
8.24

Give pKd for the following variant: CCCAACGACUGCCGAGCCAGAUUACGCUUGAGCGCCCCACUGAGGAUGCCCACGGGCGAUUGGGGCACGG [G18C]
8.21

Tell me its pKd given CCCAAGGACUGCCGAGCGAGAUUAUGCUUGAGCGCCCCACUGAGGAUGCCCACGGGCGAUUGGGGCACGG [C6G C25U] as the entry.
8.25

Complete the entry with pKd for CCCAACGACUGCCAAGCGAGAUUACGCUUGAGCGCCCCACUGAGGAUGCCCGCGGGCGAUUGGGGCACGG [G14A A52G]
8.38

Answer with the recorded pKd for the variant listed here: CCCGACGACUGCCGAGCGAGAUUACGCUUGAGCGCCCCACUAAGGAUGCCCACGGGCGAUUGGGGCACGG [A4G G42A]
7.34

Consider the variant CCCAACGAGUGCCGAGCGAGAUUACGCUUGAGCGCCCCACUGAGGGUGCCCACGGGCGAUUGGGGCACGG [C9G A46G] . State its measured pKd.
7.32
